system: Botulinum neurotoxin type F light chain protease (Clostridium botulinum); experiment: Botulinum neurotoxin type F light chain protease inhibition, multiplex microsphere flow cytometry, validation set (AID 588459); conditions: multiplex microsphere protease substrate cleavage assay, at 10 µM, active compounds read high
MEASUREMENT_NAME: inhibition (%)

>>> df
                                    compound  measurement_name  measured_value
 0  O=C(CN1C(=O)C2CCc3[nH]c4ccccc4c3C2C1=O)N1CCCC1 (stereo unspecified)        inhibition             0.5
 1  C=CCc1cccc2cc(C(=O)Nc3ccc(CC(=O)O)cc3)c(=O)oc12        inhibition             1.3
 2            O=C1CCCN1C(=O)CCC(=O)N1CCCC1=O        inhibition            -1.4
 3  COc1cc2c(cc1OC)-c1cc(NC3CCCCCC3)nc(=O)n1CC2        inhibition            -2.3
 4  CCCCC/C=C\C[C@H](O)/C=C/c1cccc(C[C@H](O)CCCCO)n1        inhibition             2.3
 5                                 Nc1ccncc1        inhibition             2.4
 6    Cn1nc(-c2ccccn2)nc2c(=O)n(C)c(=O)nc1-2        inhibition            -0.9
 7  CCOC(=O)c1cnc2ccc(C(=O)OC)cc2c1Nc1ccc2c(c1)OCCO2        inhibition            -0.5
 8  COc1ccc(-c2c3c(=O)n(C)c(=O)n(C)c3cn2C2CCCCC2)cc1        inhibition             1.1
 9           COc1cccc(OC)c1C(=O)NCCSC1CCCCC1        inhibition             1.4
10  O=C(Nc1cccc(Oc2c(F)c(F)c(F)c(F)c2F)c1)N1C[C@@H]2C[C@@H](C1)c1cccc(=O)n1C2        inhibition             2.7

====

inhibition values for the compounds below.
test system: Botulinum neurotoxin type F light chain protease (Clostridium botulinum); assay: Botulinum neurotoxin type F light chain protease inhibition, multiplex microsphere flow cytometry, validation set (AID 588459); details: multiplex microsphere protease substrate cleavage assay, at 10 µM, active compounds read high
MEASUREMENT_NAME: inhibition (%)

>>> print(df.to_string())
                                   compound  measured_value
0  COc1cccc(C2CCCN2Cc2nc(CCC(C)C)no2)c1 (stereo unspecified)            -2.5
1  CCc1cccc(OC2OC(CO)C(O)C(O)C2NC(C)=O)c1 (stereo unspecified)            -0.7
2  COc1cccc(CN2C(=O)N(C(C)C)C(N(O)C(=O)NC(C)C)C2(C)C)c1OC (stereo unspecified)            -1.7
3                 O=C(O)/C=C/c1ccc(O)c(O)c1            -0.3
4    COC(=O)c1cc(Br)c(=O)n(CCc2ccc(O)cc2)c1             2.6
5               CN=C1c2cc3cc(OC)ccc3n2CCN1C            -1.5

====

Consider the following molecules and their measured inhibition readings.
target: Botulinum neurotoxin type A (Clostridium botulinum) (UniProt P0DPI0); assay: BoNT/A light chain protease inhibitors, biochemical, multiplex microsphere flow cytometry, validation set (AID 588460); conditions: at 10 µM, active compounds read high
Sequence (P0DPI0 whole entry, looked up): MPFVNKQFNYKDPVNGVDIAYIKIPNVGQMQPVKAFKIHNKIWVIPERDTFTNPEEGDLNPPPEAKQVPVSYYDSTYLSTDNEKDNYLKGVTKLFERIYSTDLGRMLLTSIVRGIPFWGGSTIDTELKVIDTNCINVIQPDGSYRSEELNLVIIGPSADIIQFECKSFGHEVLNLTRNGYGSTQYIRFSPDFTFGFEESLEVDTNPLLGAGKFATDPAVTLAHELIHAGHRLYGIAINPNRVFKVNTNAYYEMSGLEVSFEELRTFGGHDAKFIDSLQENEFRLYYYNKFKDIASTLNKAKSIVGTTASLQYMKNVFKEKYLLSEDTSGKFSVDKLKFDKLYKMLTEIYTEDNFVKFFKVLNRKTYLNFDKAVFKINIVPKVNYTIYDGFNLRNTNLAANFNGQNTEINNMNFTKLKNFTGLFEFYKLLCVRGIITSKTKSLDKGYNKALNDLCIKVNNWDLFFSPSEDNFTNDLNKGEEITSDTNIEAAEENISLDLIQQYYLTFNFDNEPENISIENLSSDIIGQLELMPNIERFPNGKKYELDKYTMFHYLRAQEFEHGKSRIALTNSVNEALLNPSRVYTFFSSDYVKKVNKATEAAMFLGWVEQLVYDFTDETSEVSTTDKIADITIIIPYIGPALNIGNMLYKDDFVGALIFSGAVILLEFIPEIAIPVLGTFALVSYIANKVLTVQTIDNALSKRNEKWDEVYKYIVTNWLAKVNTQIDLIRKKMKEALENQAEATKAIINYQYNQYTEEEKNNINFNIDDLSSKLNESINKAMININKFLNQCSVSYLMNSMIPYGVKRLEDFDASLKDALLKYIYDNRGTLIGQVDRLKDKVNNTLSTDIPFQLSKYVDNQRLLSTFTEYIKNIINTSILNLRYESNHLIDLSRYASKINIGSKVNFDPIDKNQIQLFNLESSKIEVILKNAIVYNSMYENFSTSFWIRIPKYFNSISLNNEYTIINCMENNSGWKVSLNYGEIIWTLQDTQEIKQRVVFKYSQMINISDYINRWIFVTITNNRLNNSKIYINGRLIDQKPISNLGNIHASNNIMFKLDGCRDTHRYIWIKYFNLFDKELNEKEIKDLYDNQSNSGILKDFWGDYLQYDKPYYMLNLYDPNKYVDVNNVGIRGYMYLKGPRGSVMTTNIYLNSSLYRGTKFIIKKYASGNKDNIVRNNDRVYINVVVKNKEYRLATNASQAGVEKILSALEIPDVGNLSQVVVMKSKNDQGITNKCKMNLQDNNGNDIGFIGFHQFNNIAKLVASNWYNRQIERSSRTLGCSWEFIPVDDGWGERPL
Where a SMILES comes first, the peptide text is derived from it. The star is where a group is joined. Boc = CC(C)(C)OC(=O)*
MEASUREMENT_NAME: inhibition (%)

MOLECULE	MEASUREMENT_NAME	UNITS_TEXT	MEASURED_VALUE
O=C(NCCc1c[nH]c2ccccc12)c1cccnc1	inhibition	%	-0.7
CC(C)=CCC/C(C)=C/CC/C(C)=N/O	inhibition	%	-0.4
CO[C@H]1C=CO[C@@]2(C)Oc3c(C)c(O)c4c(O)c(c(C=NN5CCN(C)CC5)c(O)c4c3C2=O)NC(=O)C(C)=CC=C[C@H](C)[C@H](O)[C@@H](C)[C@@H](O)[C@@H](C)[C@H](OC(C)=O)[C@@H]1C	inhibition	%	0.5
CC(C)c1ccc(OCc2ccc(C(=O)O)o2)cc1	inhibition	%	-0.2
Cc1cc(-c2nn(-c3ccccc3F)cc2CN2CCC(O)CC2)c(C)s1	inhibition	%	0.2
COCCc1ccc(OCC(O)CNC(C)C)cc1 (centres undefined)	inhibition	%	-1.4
CC(C)Cc1cc(C(=O)N2CCC(N3CCC(C(=O)N4CCCC4)CC3)CC2)n[nH]1	inhibition	%	-2
CC(C)C12CN3CC(C(C)C)(CN(C1)C31C(=O)Nc3ccccc31)C2=O (centres undefined)	inhibition	%	0.7
CC(=O)N(CCC1(C(C)C)CCOC(C)(C)C1)Cc1ccco1 (centres undefined)	inhibition	%	-1.4
CC(=O)Oc1ccc2occ(/C=N/c3cc(=O)[nH]c(=S)[nH]3)c(=O)c2c1	inhibition	%	0.7
CC(=O)C1=C(C)OC(N)=C(C(=O)OC(C)C)C12C(=O)Nc1ccccc12 (centres undefined)	inhibition	%	-0.1
Cc1cnc(C(=O)N2CCCC(C(=O)c3ccc(Cl)cc3C)C2)cn1 (centres undefined)	inhibition	%	0.4
O=C1NC(=O)C2(Cc3ccccc3N3CCCC32)C(=O)N1c1ccc(Cl)cc1 (centres undefined)	inhibition	%	0.8
CCOc1ncnc2c1[nH]c1ccccc12	inhibition	%	0.5
O=C(Nc1nc2ccccc2s1)c1ccc(F)cc1	inhibition	%	-1.5
CC(C)NNC(=O)c1ccncc1	inhibition	%	1.3
CC(=O)[C@H]1CC[C@H]2[C@@H]3C[C@H](C)C4=CC(=O)CC[C@]4(C)[C@H]3[C@@H](O)C[C@]12C	inhibition	%	0.9
COP(=O)(OC)C(O)C(Cl)(Cl)Cl (centres undefined)	inhibition	%	-0.6
COc1ccc(CN2CCCC(C(=O)c3ccc(Cl)cc3)C2)cc1Cn1cccn1 (centres undefined)	inhibition	%	-0.6
CC(C)C[C@H]1C(=O)N2CCCC2[C@]2(O)O[C@](NC(=O)[C@@H]3C=C4c5cccc6[nH]cc(c56)CC4N(C)C3)(C(C)C)C(=O)N12 (some centres undefined)	inhibition	%	-1.6
COc1cc2cc(C(=O)O)[nH]c2c(OC)c1OC	inhibition	%	-0.4
Cc1ccc2c(c1)OC(=O)CC2c1ccccc1 (centres undefined)	inhibition	%	-1.1
COc1ccc(OC)c(C(=O)c2coc3ccc(O)cc23)c1	inhibition	%	-1.6
CCN(CC)CCOC(=O)C(c1ccccc1)c1ccccc1	inhibition	%	-1.6
COc1ccc(-c2nnc(-c3cc4c(ccc5ccccc54)oc3=O)o2)cc1	inhibition	%	0.4
COc1cc(NC(=S)NN2CCN(C)CC2)cc(OC)c1OC	inhibition	%	-0.6
Cc1ccc(Cl)c(Nc2ccccc2C(=O)O)c1Cl	inhibition	%	0.2
O=C(CC1(O)C(=O)Nc2ccccc21)c1ccccc1O (centres undefined)	inhibition	%	-0.8
O=C(/C=C/c1ccco1)NCc1ccc2c(c1)OCO2	inhibition	%	-0.4
O=c1c2ccccc2nnn1Cc1cccc2ccccc12	inhibition	%	0.7
CC12CN3CC(c4ccccc4)(CN(C1)C31CCCCC1)C2=O	inhibition	%	-0.1
CN(C)CCN(Cc1ccc(Cl)cc1)c1ccccn1	inhibition	%	0.1
O=C(Nc1c(C(=O)O)[nH]c2ccccc12)NC1CCCCC1	inhibition	%	0.4
N=C(N)c1ccc(OCCCCCOc2ccc(C(=N)N)cc2)cc1	inhibition	%	-1.6
CC[N+](C)(C)c1cccc(O)c1	inhibition	%	-0.2
O=C(c1cc2cc(Br)ccc2o1)N1CCCCC1	inhibition	%	-0.6
CC(C)CC(NC(=O)C1CCCN1C(=O)OC(C)(C)C)C(=O)NCC(N)=O (stereo not drawn) (Boc-Pro-Leu-Gly-NH2; configuration not given here)	inhibition	%	0.3
C(=C\c1ccccc1)/CN1CCN(C(c2ccccc2)c2ccccc2)CC1	inhibition	%	-1.7
Nc1ccn([C@@H]2O[C@H](CO)[C@@H](O)[C@@H]2O)c(=O)n1	inhibition	%	-0.7
Clc1ccc(C2NCCc3[nH]cnc32)cc1 (centres undefined)	inhibition	%	0.7
COc1ccc2oc(=O)c(C(=O)N3CCN(c4ccccc4)CC3)cc2c1	inhibition	%	0.2
COc1ccc(C2=NOC(COc3ccc4c(C)cc(=O)oc4c3)C2)c(OC)c1 (centres undefined)	inhibition	%	1.7
CN1CCC(OC(c2ccccc2)c2ccccc2)CC1	inhibition	%	-0.5
COc1ccccc1NC(=O)Cn1c(C)cc(=O)c2cccc(OC)c21	inhibition	%	-0.9

====

target: Lethal factor (Bacillus anthracis) (UniProt P15917); test: Lethal factor protease inhibitors, Bacillus anthracis, multiplex microsphere cleavage assay, validation set (AID 588461); conditions: flow cytometry, at 10 µM, active compounds read high
Sequence (P15917 whole entry, looked up): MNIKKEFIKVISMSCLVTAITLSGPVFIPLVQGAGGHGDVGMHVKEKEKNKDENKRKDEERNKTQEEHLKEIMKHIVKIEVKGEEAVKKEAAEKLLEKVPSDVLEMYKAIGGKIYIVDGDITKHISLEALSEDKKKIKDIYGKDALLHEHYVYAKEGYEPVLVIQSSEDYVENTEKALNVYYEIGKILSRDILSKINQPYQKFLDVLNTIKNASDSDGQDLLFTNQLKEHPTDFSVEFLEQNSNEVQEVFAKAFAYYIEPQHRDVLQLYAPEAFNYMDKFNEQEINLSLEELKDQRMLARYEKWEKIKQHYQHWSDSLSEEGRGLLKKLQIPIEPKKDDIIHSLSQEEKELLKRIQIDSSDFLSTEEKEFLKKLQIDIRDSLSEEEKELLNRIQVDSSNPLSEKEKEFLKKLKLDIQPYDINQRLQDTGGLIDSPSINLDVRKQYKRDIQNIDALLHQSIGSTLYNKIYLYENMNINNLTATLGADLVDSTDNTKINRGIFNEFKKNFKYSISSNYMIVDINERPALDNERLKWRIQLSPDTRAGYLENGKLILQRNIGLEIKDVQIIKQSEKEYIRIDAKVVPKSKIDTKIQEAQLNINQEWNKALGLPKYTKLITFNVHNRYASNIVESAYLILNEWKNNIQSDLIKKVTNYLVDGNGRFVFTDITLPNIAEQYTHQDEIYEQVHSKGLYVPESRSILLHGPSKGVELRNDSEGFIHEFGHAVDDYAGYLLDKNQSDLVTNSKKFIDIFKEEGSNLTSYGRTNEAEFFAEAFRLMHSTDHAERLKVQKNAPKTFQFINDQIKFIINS
# key: entry, value: inhibition
MEASUREMENT_NAME: inhibition (%)

>>> df
                                    molecule  units_text  measured_value
 0                    CC1=CC(=O)c2ccccc2C1=O           %             6.7
 1  CCC(=O)Oc1ccc(/C(CC)=C(\CC)c2ccc(OC(=O)CC)cc2)cc1           %            -0.2
 2            O=C1CCCN1C(=O)CCC(=O)N1CCCC1=O           %            -2.8
 3  CC(=O)C1=C(C)OC(N)=C(C(=O)OC(C)C)C12C(=O)Nc1ccccc12 (centres undefined)           %            -1.4
 4  CCOC(=O)N1CCN(Cc2nc(Cc3cccc(F)c3)no2)CC1           %             3.3
 5  COc1ccc(C(=O)C2CCCCC2=O)cc1 (centres undefined)           %            -1.2
 6  O=C1CC(c2ccc(O)cc2)Oc2cc(O)cc(O)c21 (centres undefined)           %            -0.4
 7  COc1ccc(C2C(C(=O)c3ccco3)=C(O)C(=O)N2CC2CCCO2)cc1 (centres undefined)           %            -4.2
 8          CCOC(=O)c1c(O)c2c([nH]c1=O)CCCC2           %            -3.9
 9  O=C(Nc1ccc(Oc2c(F)c(F)c(F)c(F)c2F)cc1)OC1CCN2Cc3ccccc3N=C12 (centres undefined)           %             2.6
10             CC(C)NC(=O)C1(c2ccccc2)CCOCC1           %            -2.6
11        COc1ccc(NC(=O)Nc2ccc(C(C)C)cc2)cc1           %             5.7
12  Cc1ccc2c(CN3CCN(Cc4ccc5c(c4)OCO5)CC3)cc(=O)oc2c1C           %            -5.7
13               CN(C)CCOC(c1ccccc1)c1ccccc1           %              -5
14  Cc1cnc(C(=O)NCCc2ccc(S(=O)(=O)NC(=O)NC3CCCCC3)cc2)cn1           %            -0.1
15  O=C(COc1ccccc1)Nc1ccc2c(c1)C(=O)N(CC1CCCO1)C2=O (centres undefined)           %             4.5
16  CC(=O)[C@H]1CC[C@H]2[C@@H]3CC[C@H]4C[C@H](O)CC[C@]4(C)[C@H]3C(=O)C[C@]12C           %            -1.9
17  CC(C)c1ccc(NC(=O)CNS(=O)(=O)c2ccc(F)cc2)cc1           %             2.8
18                CNCCCN1c2ccccc2CCc2ccccc21           %             3.8
19             O=[N+]([O-])c1ccc(O)c2ncccc12           %            -2.8
20         O=C(/C=C/c1ccccc1)NC(=O)c1ccccc1O           %            -5.7
21                     O=c1[nH]cnc2[nH]ncc12           %            -1.1
22  CC(C)(C)NCC(O)c1cc(Cl)c(N)c(Cl)c1 (centres undefined)           %             6.8
23                       COc1ccc(C(=O)O)cc1F           %            -1.1
